assay_system: T1, AflR-DBD (15-79) (Aspergillus flavus, UniProt P41765 15-79)
T1 sequence: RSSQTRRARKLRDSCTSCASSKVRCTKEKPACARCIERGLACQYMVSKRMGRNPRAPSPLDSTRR
assay_explanation: FCS
assay_endpoint: Kd (nM)
# output: bare number, implied unit nM

Briefly, Kd measured for ver1 (dsDNA) DNA 1: TCAGATATTTCGGTCTCCGAGGAAAGAT DNA 2: ATCTTTCCTCGGAGACCGAAATATCTGA : 401

Data provenance: paper PMC12501005
